meta.source: patent US10227342B2

Below: a set of entries, each annotated with reported IC50.
Target Or Test System: Her2 exon 20 YVMA insertion (A775_G776ins YVMA) (Homo sapiens (Human), UniProt P04626, INS775YVMA)
Sequence (P04626 other isoform, or with tags, fused parts or gaps ins YVMA behind 775): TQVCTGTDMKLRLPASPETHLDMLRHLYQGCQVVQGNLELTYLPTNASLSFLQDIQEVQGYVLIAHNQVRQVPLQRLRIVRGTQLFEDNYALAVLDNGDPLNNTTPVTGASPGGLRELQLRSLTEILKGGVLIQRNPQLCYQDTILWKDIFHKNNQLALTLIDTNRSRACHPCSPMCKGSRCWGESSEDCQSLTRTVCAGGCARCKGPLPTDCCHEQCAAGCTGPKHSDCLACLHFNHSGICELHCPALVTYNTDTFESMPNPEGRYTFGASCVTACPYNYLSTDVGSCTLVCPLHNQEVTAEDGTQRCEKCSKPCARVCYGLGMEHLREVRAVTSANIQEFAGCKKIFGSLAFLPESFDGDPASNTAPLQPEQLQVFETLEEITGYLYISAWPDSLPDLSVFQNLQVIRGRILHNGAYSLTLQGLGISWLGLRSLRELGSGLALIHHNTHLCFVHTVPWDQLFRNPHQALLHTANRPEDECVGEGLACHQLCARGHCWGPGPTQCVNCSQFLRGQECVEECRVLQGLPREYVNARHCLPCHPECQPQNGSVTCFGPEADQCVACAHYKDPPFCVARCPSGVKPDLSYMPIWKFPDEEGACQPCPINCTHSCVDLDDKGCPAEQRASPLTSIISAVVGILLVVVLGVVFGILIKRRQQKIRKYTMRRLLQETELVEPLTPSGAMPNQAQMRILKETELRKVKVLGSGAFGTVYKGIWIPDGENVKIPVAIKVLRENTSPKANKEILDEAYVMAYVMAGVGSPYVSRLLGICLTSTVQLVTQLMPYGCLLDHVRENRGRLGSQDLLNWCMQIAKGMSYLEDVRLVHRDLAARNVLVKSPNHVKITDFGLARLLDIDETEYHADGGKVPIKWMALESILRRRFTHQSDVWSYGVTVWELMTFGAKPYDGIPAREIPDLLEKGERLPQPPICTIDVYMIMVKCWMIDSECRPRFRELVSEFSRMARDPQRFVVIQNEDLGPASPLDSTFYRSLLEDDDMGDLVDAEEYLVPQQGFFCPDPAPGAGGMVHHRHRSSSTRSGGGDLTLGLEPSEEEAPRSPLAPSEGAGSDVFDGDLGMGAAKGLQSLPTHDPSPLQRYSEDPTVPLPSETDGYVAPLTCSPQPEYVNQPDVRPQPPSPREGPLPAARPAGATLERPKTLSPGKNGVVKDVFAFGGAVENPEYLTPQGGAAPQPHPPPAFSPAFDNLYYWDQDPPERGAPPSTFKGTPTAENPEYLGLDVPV
Assay Comment: Ba/F3-Her2 Exon20 YVMA cell anti-proliferative assay (CellTiter 96 MTS, 72 h)
Condition Notes: Ba/F3-Her2 Exon20 YVMA cells

Solved cases below.
> print(dat)
                                   molecule  property.measured  experimental.result
1  C=CC(=O)Nc1cc(Nc2ncc(Cl)c(-c3cnn4ccccc34)n2)c(OC)cc1OCCN(C)C               IC50        0.1 to 0.5 µM
2  C=CC(=O)Nc1cc(Nc2ncnc(-c3c(C4=CCOCC4)n(C)c4ccccc34)n2)c(OC)cc1N(C)CCN(C)C               IC50        0.1 to 0.5 µM
3  C=CC(=O)Nc1cc(Nc2ncc(C(=O)OC(C)C)c(-c3cn(C)c4ccccc34)n2)c(OC)cc1N(C)C[C@H]1CCCN1C               IC50             < 0.1 µM
4  C=CC(=O)Nc1cc(Nc2nccc(-c3cn(C)c4cc(-c5cnn(C)c5)ccc34)n2)c(OC)cc1N(C)CCN(C)C               IC50        0.1 to 0.5 µM
5  C=CC(=O)Nc1cc(Nc2ncc(C(=O)OC(C)C)c(-c3cn(C)c4c(OC)cccc34)n2)c(OC)cc1N(C)CCN(C)C               IC50             < 0.1 µM
6  C=CC(=O)Nc1cc(Nc2ncc(CC)c(-c3cn(CC(N)=O)c4ccccc34)n2)c(OC)cc1N(C)CCN(C)C               IC50        0.1 to 0.5 µM
7  C=CC(=O)Nc1cc(Nc2ncc(P(C)(C)=O)c(-c3cn(C)c4ccccc34)n2)c(OC)cc1N(C)CCN(C)C               IC50               > 1 µM
8  C=CC(=O)Nc1cc(Nc2nccc(-c3cn(C)c4cc(C(=O)OC)ccc34)n2)c(OC)cc1N(C)CCN(C)C               IC50        0.1 to 0.5 µM

Record request: IC50 value, item C=CC(=O)Nc1cc(Nc2nccc(-c3c(-c4cncc(Cl)c4)n(C)c4ccccc34)n2)c(OC)cc1N(C)CCN(C)C
0.1 to 0.5 µM

Record request: IC50 value, item C=CC(=O)Nc1cc(Nc2ncc(C(=O)OC)c(-c3cn(C)c4ccccc34)n2)c(OC)cc1N(C)CC1CCCN1C (centres unmarked)
0.1 to 0.5 µM

Record request: IC50 value, item C=CC(=O)Nc1cc(Nc2ncc(C(=O)OC3CN(C)C3)c(-c3cn(C)c4ccccc34)n2)c(OC)cc1N(C)CCN(C)C
> 1 µM

Record request: IC50 value, item C=CC(=O)Nc1ccc(OC)c(Nc2ncc(C#N)c(-c3cn(C)c4cc(OCCC5CCCN5C)ccc34)n2)c1 (centres unmarked)
0.5 to 1 µM

Record request: IC50 value, item C=CC(=O)Nc1cc(Nc2nccc(-c3c(-c4ccccc4)n(C)c4ccccc34)n2)c(OC)cc1N(C)CCN(C)C
0.1 to 0.5 µM

Record request: IC50 value, item C=CC(=O)Nc1cc(Nc2ncc(Cl)c(-c3cnn4ccccc34)n2)c(OC)cc1N(C)CCN(C)CCF
0.5 to 1 µM
